test-target: human 5-HT2CR (Homo sapiens, UniProt P28335)
Sequence (P28335 33-458): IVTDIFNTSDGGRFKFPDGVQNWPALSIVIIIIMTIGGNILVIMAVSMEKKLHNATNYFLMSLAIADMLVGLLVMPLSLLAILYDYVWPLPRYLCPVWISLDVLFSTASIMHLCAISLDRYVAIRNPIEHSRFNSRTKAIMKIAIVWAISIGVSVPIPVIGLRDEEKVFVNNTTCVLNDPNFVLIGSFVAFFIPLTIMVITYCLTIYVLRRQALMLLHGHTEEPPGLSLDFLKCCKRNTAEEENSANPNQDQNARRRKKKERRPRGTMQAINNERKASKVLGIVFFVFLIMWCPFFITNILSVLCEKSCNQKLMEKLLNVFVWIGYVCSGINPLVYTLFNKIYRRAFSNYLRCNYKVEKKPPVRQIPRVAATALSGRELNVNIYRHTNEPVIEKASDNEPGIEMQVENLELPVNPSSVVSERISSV
procedure-summary: Ca2+/Fluo-4 assay, agonist mode, stable 5-HT2CR-HEK293 cells
condition-description: 5-HT2CR EC50 (nM), Table 1; at least 3 independent experiments
For each of the compounds below, state its EC50.

These recorded examples may help you get a feel for the data.
compound: CCCCc1cc(OC)c(C2CCCNC2)cc1OC.Cl (stereo not shown) [Compound 14eu]
EC50: > 10000 nM
//
compound: COc1cc(C2CCCNC2)c(OC)cc1Br (stereo not shown) [Compound 6eu]
EC50: > 50000 nM
//
compound: COc1cc(C2CCCNC2)c(OC)cc1I (stereo not shown)
EC50: > 50000 nM
//
compound: COc1cc(C2CCCNC2)c(OC)cc1Cl (stereo not shown)
EC50: > 50000 nM
//
compound: COc1cc(C(F)(F)F)c(OC)cc1[C@@H]1CCCNC1 [(S)-11]
EC50: > 50000 nM
//
compound: COc1cc(C2CCCNC2)c(OC)cc1Br (stereo not shown) [Compound 6dis]
EC50: 1900 nM
//
compound: COc1cc(C2CCCNC2)c(OC)cc1SC(C)C (stereo not shown) [Compound 17eu]
EC50: > 10000 nM
//
compound: COc1ccc(OC)c(C2CCCNC2)c1 (stereo not shown)
EC50: > 10000 nM
//
compound: COc1cc(C2CCCNC2)c(OC)cc1C#N (stereo not shown) [Compound 10eu]
EC50: > 50000 nM

Now look at this one.
What measured EC50 goes with COc1cc(C2CCCNC2)c(OC)cc1C.Cl (stereo not shown) [Compound 12eu] ?
> 10000 nM

---

Exercise: state measured 5-HT2AR Rmax (%) for each of the compounds provided.
test-target: human 5-HT2AR (Homo sapiens, UniProt P28223)
Sequence (P28223 whole entry): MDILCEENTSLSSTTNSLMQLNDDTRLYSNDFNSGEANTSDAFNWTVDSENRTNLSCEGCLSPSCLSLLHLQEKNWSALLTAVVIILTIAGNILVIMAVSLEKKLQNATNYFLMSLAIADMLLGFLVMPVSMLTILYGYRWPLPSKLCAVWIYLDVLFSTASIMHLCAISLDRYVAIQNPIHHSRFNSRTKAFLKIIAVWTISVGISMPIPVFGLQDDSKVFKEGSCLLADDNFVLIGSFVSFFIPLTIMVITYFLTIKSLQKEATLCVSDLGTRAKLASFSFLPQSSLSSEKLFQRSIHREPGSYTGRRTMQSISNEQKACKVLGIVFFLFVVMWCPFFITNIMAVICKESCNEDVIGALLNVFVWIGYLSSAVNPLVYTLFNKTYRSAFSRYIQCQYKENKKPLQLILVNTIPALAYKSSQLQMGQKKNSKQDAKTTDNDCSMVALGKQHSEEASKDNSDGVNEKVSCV
procedure-summary: Ca2+/Fluo-4 assay, agonist mode, stable 5-HT2AR-HEK293 cells
condition-description: Table 1; % of the 5-HT Rmax
One number for each entry, in %.

Solved cases (2 shown):
compound: Br.COc1cc(C2CCNC2)c(OC)cc1Br (stereo not drawn) [Compound 5dis]
5-HT2AR Rmax (%): 39
--
compound: Br.COc1cc(C2CCNC2)c(OC)cc1Br (stereo not drawn) [Compound 5eu]
5-HT2AR Rmax (%): 57

Using the record for `COc1cc(C2CNC2)c(OC)cc1Br` , report its 5-HT2AR Rmax (%).
97

---

Can you tell me EC50 for the items I'm about to list?
test-target: human 5-HT2AR (Homo sapiens, UniProt P28223)
procedure-summary: Ca2+/Fluo-4 assay, agonist mode, stable 5-HT2AR-HEK293 cells
condition-description: read-out: 5-HT2AR EC50; Table 2; at least 3 independent experiments
Answers are plain numbers, in nM.

Worked cases, answers included:
molecule: CCOc1cc(C(F)(F)F)c(OC)cc1C1CCCNC1.Cl (stereo not drawn) [Compound 24dis]
test-target: human 5-HT2AR (Homo sapiens, UniProt P28223)
EC50 (nM): 410
--
molecule: CCOc1cc(C2CCCNC2)c(OC)cc1C(F)(F)F.Cl (stereo not drawn) [Compound 25eu]
test-target: human 5-HT2AR (Homo sapiens, UniProt P28223)
EC50 (nM): 10
--
molecule: COc1cc(C(F)(F)F)ccc1C1CCCNC1.Cl (stereo not drawn) [Compound 22dis]
test-target: human 5-HT2AR (Homo sapiens, UniProt P28223)
EC50 (nM): 660
--
molecule: CCOc1cc(C(F)(F)F)c(OCC)cc1C1CCCNC1.Cl (stereo not drawn) [Compound 26dis]
test-target: human 5-HT2AR (Homo sapiens, UniProt P28223)
EC50 (nM): 3000
--
molecule: COc1cc(C2CCCNC2)ccc1C(F)(F)F.Cl (stereo not drawn) [Compound 23dis]
test-target: human 5-HT2AR (Homo sapiens, UniProt P28223)
EC50 (nM): 2500

# next molecule below
Hi! What's the reported EC50 for CCOc1cc(C(F)(F)F)c(OC)cc1C1CCCNC1.Cl (stereo not drawn) [Compound 24eu] on human 5-HT2AR (Homo sapiens, UniProt P28223)?
38
